systemName: T1, CD3 epsilon homodimer protein (UniProt P07766 23-126)
T1 construct: also called CD3 (CD3 epsilon)
T1 sequence (P07766 23-126): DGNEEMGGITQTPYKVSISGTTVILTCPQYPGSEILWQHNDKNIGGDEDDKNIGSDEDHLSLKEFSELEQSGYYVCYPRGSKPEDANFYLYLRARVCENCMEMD
experimentDescription: SPR, antibody over immobilised CD3e homodimer;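 note: SPR at 25 °C with CD3 epsilon homodimer amine-coupled to a CM4 sensor chip and antibody flowed over as analyte in HBS-EP+ running buffer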
Entries and their KD ratio to GLS3000
# answer = number (no unit)

Below: 5 binders and their reported KD ratio to GLS3000.
binder: CE115HA000/GLS3000 L27bD (antibody, IgG1, name in Kabat numbering, V domains shown, one-arm IgG1) VH: QVQLVESGGGVVQPGRSLRLSCAASGFTFSNAWMHWVRQAPGKGLEWVAQIKAKSNNYATYYAESVKGRFTISRDDSKNSLYLQMNSLKTEDTAVYYCRYVHYGAYYGVDAWGQGTTVTVSS VL: DIVMTQSPLSLPVTPGEPASISCRSSQSDVHSNRNTYLHWYQQKPGQAPRLLIYKVSNRFSGVPDRFSGSGSGTDFTLKISRVEAEDVGVYYCGQGTQVPYTFGQGTKLEIK
KD ratio to GLS3000: 25.1

binder: CE115HA000/GLS3000 S25P (antibody, IgG1, name in Kabat numbering, V domains shown, one-arm IgG1) VH: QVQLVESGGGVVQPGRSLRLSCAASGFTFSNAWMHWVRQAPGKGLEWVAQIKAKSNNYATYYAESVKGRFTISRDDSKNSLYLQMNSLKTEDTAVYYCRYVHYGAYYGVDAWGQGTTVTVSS VL: DIVMTQSPLSLPVTPGEPASISCRPSQSLVHSNRNTYLHWYQQKPGQAPRLLIYKVSNRFSGVPDRFSGSGSGTDFTLKISRVEAEDVGVYYCGQGTQVPYTFGQGTKLEIK
KD ratio to GLS3000: 0.79

binder: CE115HA000/GLS3000 K107E (antibody, IgG1, name in Kabat numbering, V domains shown, one-arm IgG1) VH: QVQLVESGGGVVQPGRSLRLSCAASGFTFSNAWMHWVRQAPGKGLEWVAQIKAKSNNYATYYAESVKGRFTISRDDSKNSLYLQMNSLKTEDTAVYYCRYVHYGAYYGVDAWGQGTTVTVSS VL: DIVMTQSPLSLPVTPGEPASISCRSSQSLVHSNRNTYLHWYQQKPGQAPRLLIYKVSNRFSGVPDRFSGSGSGTDFTLKISRVEAEDVGVYYCGQGTQVPYTFGQGTKLEIE
KD ratio to GLS3000: 0.95

binder: CE115HA000/GLS3000 S27eR (antibody, IgG1, name in Kabat numbering, V domains shown, one-arm IgG1) VH: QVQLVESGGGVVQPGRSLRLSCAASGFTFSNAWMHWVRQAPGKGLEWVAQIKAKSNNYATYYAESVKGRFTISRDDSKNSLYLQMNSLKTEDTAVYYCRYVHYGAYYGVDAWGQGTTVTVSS VL: DIVMTQSPLSLPVTPGEPASISCRSSQSLVHRNRNTYLHWYQQKPGQAPRLLIYKVSNRFSGVPDRFSGSGSGTDFTLKISRVEAEDVGVYYCGQGTQVPYTFGQGTKLEIK
KD ratio to GLS3000: 1.35

binder: CE115HA000/GLS3000 N28K (antibody, IgG1, name in Kabat numbering, V domains shown, one-arm IgG1) VH: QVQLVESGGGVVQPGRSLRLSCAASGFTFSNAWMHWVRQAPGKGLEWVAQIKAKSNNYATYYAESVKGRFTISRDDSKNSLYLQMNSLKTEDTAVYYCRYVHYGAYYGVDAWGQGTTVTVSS VL: DIVMTQSPLSLPVTPGEPASISCRSSQSLVHSKRNTYLHWYQQKPGQAPRLLIYKVSNRFSGVPDRFSGSGSGTDFTLKISRVEAEDVGVYYCGQGTQVPYTFGQGTKLEIK
KD ratio to GLS3000: 2.34

Now for the binder whose KD ratio to GLS3000 we want.
// returns reported KD ratio to GLS3000 for input CE115HA000/GLS3000 V51D (antibody, IgG1, name in Kabat numbering, V domains shown, one-arm IgG1) VH: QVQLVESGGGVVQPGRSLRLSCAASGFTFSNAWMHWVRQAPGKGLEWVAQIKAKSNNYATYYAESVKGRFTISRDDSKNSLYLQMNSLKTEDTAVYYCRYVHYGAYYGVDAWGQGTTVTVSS VL: DIVMTQSPLSLPVTPGEPASISCRSSQSLVHSNRNTYLHWYQQKPGQAPRLLIYKDSNRFSGVPDRFSGSGSGTDFTLKISRVEAEDVGVYYCGQGTQVPYTFGQGTKLEIK
1.5

These measurements were taken from patent US20210388087A1.
